Tested on: AncSZ;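 also: 11-residue human phosphosite peptides and single-mutation variants displayed on the E. coli surface, counted by deep sequencing, each peptide's frequency after selection divided by its frequency in the unselected input library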;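 also: frequency after pTyr selection over input frequency; kinase dosed for 20-30% of maximal phosphorylation in three min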
Assay: phosphorylation enrichment, bacterial display (enrichment ratio); higher = better substrate or ligand; peptides without Tyr show the background
PARAMETER MEASURED: phosphorylation enrichment
Respond with the number and no other words.

Use the examples below as a reference point.
>>> value_reported("FEREQYADRAR [RBM4_Y355_YF]")
0.626
>>> value_reported("SASQEYHIVKK [PDZD2_Y557]")
0.779
>>> value_reported("FGPPQYNIQFS [ERBB2IP_Y977_YF]")
0.768

Query (sequence): SIKDKYVTAFF [KCNH2_Y611_L615F_YF] ; field requested: phosphorylation enrichment 0.582

What about this sequence? RPDSPYSRLHD [DOK2_Y271_P274L] 0.916

Again, but for FSLPAFMDRRD [COX4I1_Y38_Y38F] 0.947

Input LLREWYLPDPF [SIX3_Y225_Q227P_YF] 2.26

Check PSQRRNVYYYS [PTEN_Y174_Y174N] too. 0.567

Next up: PGLSSYGVPAS [FLNB_Y1530] 0.677

Again, but for CKRQFYLFKGK [RSPO4_Y112_YF] 0.863

Item: IVLRSYPASDH [NID2_Y449_G453D] 0.966

Same question for ISKQEYDEAGP [ACTC1_Y364] please. 1.28

Same lookup for GKSFTYAAFHA [KCNT1_Y563] , please. 0.849

Again, but for FGRTFYNQANM [MCCC2_Y196_I200N] 0.939

Same thing, different sequence: GKMSSYAFFVQ [HMGB1_Y16] 1.01

Same lookup for IVKAYYVRARA [AIPL1_Y268] , please. 1.01

Entry to check: QKNVSYVSTVS [TASOR_Y1043] 0.815

And then KYACSYTPVKA [FLNB_Y708_T703K] , what is it? 0.689

// next record DFLSSYSAVKQ [OAT_Y85_N89K] 1.5

----------
Molecular target: c-Src SH2
Test: SH2 binding enrichment of the phosphorylated peptide, bacterial display (enrichment ratio); higher = better substrate or ligand; peptides without Tyr show the background
Reported SH2 binding enrichment is given for each of the following sequences.
Answer using only a numeral; do not append any unit.

Answered examples (5):
>>> value_reported("PNQRRYVFFFS [PTEN_Y174_S170N_YF]")
1.23
>>> value_reported("LVLIKYLPEWT [PSEN1_Y240_F237L]")
1.21
>>> value_reported("DFLSSYSAVKQ [OAT_Y85_N89K]")
1.21
>>> value_reported("LERYIYNRQEF [HLA-DPB1_Y59_E62Q]")
0.477
>>> value_reported("KVDKECEVRVR [GHR_Y226_Y226C]")
0.575

// next item, SH2 binding enrichment requested
Fill in: SH2 binding enrichment of SAVTGYRVNVI [FN1_Y937_D940N] is ___ 0.505

----------
# SH2 binding enrichment values compiled below
Target: SHP2-C SH2
Assay: SH2 binding enrichment of the phosphorylated peptide, bacterial display (enrichment ratio); higher = better substrate or ligand; peptides without Tyr show the background
Reply with just the number.

Quick check: SH2 binding enrichment of EILLSYPRTGY [TGM1_Y365_L366P] ? 0.699

Moving on to GTVRDYPDFSP [ANXA3_Y15] 0.623

Also FADPFYDFEIE [ZC3H18_Y372_YF] ? 0.8

Lookup EQLRAYLEGTC [HLA-C_Y183] 0.707

// next record RHFVFYFSFLL [PTEN_Y177_R173H_YF] 0.962
